EXPERIMENTAL TARGET: T1, human GDF15 (hGDF15), mature, wild-type (human, UniProt Q99988 197-308)
T1 construct: Bought recombinant protein: R&D Systems 957-GD-025/CF in most assays, 9279-GD in the crystal and the GDF15/GFRAL/RET assay; It was biotinylated in the GFRAL assay; also called hGDF15 (WT); rhGDF15
T1 sequence: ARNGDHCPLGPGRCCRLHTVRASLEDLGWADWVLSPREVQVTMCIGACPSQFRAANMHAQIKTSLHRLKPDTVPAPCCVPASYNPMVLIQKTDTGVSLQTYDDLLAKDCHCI
RUN DESCRIPTION: ELISA, hGDF15 immobilised
ASSAY METRIC: binding result

H3-L72F (antibody, human IgG1, kappa, V domains shown, In the label, L means the L chain; also called HuMAB2 variant L72F) VH: QVQLQESGPGLVKPSETLSLTCTVSGFSINSDCYWIWIRQPPGKGLEYIGYTFYSGITYYNPSLASRTTISRDTSKNQFSLKLSSVTAADTAVYYCARDCDYAMDYWGQGTLVTVSS VL: DIQMTQSPSSLSASVGDRVTITCRASQDISNYLNWYQQKPGKAVKLLIHYTFTLHSGVPSRFSGSGSGTDYTLTISSLQPEDFATYFCQQGNTLPWTFGQGTKLEIKR ... binds
